Exercise: for every item that follows, state its recorded IC50.
target: recombinant human 15-PGDH (Homo sapiens (Human), UniProt P15428); assay: 15-PGDH enzyme inhibition test; assay type: biochemical; conditions: 4 nM recombinant human 15-PGDH, 30 μM PGE2, 1 mM NAD+, fluorescence 340/440 nm after 60 min
Sequence (P15428 whole entry): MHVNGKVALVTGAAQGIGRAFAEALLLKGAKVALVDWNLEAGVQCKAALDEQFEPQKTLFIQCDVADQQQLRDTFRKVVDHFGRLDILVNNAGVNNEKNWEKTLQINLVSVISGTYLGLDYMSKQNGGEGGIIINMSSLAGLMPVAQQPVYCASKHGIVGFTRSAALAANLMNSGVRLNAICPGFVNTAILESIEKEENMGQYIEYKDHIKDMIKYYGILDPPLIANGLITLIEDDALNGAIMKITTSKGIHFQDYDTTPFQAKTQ

Consider the worked cases shown below.
# molecule, system.under.test, IC50
rows = [
    ("O=C1NC(=O)N2CCN(c3cccc4cc(C(=O)N5CCCCC5)ccc34)CC12 (centres unmarked)", "recombinant human 15-PGDH (Homo sapiens (Human), UniProt P15428)", "≥ 10 nM"),
    ("C[C@H]1CCCN(C(=O)c2ccc3c(N4CCn5c(nn(CC(F)F)c5=O)C4)cccc3c2)C1", "recombinant human 15-PGDH (Homo sapiens (Human), UniProt P15428)", "< 3 nM"),
    ("CN1Cc2cc(-c3cccc4cc(C(=O)N5CCC(F)(F)CC5)ccc34)ncc2C1=O", "recombinant human 15-PGDH (Homo sapiens (Human), UniProt P15428)", "< 3 nM"),
]

For each of the items listed, what is its IC50?
1. O=C(c1cnc2c(-c3ccc4c(=O)[nH]ccc4c3)cccc2c1)N1CCC(F)(F)CC1
2. O=C(c1ccc2c(-c3ccc4c[nH]c(=O)cc4c3)cccc2c1)N1CCC(F)(F)CC1
3. O=C(c1ccc2c(-c3cc4cc[nH]c(=O)c4cn3)c(F)ccc2c1)N1CCC(F)(F)CC1

Ans.
1. < 3 nM
2. 3 to 10 nM
3. < 3 nM

For each of the items listed, what is its IC50?
1. CN1Cc2cc(-c3cccc4cc(C(=O)N5CCC[C@@H](F)C5)ccc34)ccc2C1=O
2. CNC(=O)c1ccc(-c2cccc3cc(C(=O)N4CCC(F)(F)CC4)ccc23)cc1F

Ans.
1. < 3 nM
2. 3 to 10 nM

* * *

target: recombinant human 15-PGDH (Homo sapiens (Human), UniProt P15428); assay: 15-PGDH enzyme inhibition test; conditions: 4 nM recombinant human 15-PGDH, 30 μM PGE2, 1 mM NAD+, fluorescence 340/440 nm after 60 min
measured.property: IC50

Consider the worked cases shown below.
# compound, IC50
measured = [
    ("COC(=O)c1ccc(-c2cccc3cc(C(=O)N4CCC(F)(F)CC4)ccc23)cc1F", "3 to 10 nM"),
    ("C[C@H]1CCCN(C(=O)c2ccc3c(-c4cnc5c(=O)[nH]ccc5c4)cccc3c2)C1", "< 3 nM"),
    ("CCN(CC)C(=O)c1ccc2c(-c3ccc4c(=O)[nH]ncc4c3)cccc2c1", "< 3 nM"),
    ("CC1CN(C(=O)c2ccc3c(-c4ccc5c(=O)[nH]ncc5c4)cccc3c2)CCC1(F)F (centres unmarked)", "< 3 nM"),
    ("CN1Cc2cc(-c3cccc4cc(C(=O)N5CCCC(C)(C)C5)ccc34)ccc2C1=O", "< 3 nM"),
    ("CN1Cc2cc(-c3cccc4nc(C(=O)N5CCCCC5)ccc34)ccc2C1=O", "≥ 10 nM"),
    ("C[C@H]1CCCN(C(=O)c2ccc3c(-c4ccc5c(=O)[nH]ncc5c4)cccc3c2)C1", "< 3 nM"),
    ("Cn1cnc2cc(-c3cccc4cc(C(=O)N5CCC(F)(F)CC5)ccc34)cnc2c1=O", "< 3 nM"),
]

For each of the items listed, what is its IC50?
1. Cn1ccc2cc(-c3cccc4cc(C(=O)N5CCC(F)(F)CC5)ccc34)ccc2c1=O
2. CN1Cc2cc(-c3cccc4cc(C(=O)N5CC=CCC5)ccc34)cnc2C1=O
3. Cn1ncc2cc(-c3cccc4cc(C(=O)N5CCC(F)(F)CC5)cnc34)ccc2c1=O
4. CN1Cc2cc(-c3cccc4cc(C(=O)N5CCC(F)(F)CC5)ccc34)cnc2C1=O
5. Cn1ncc2cc(-c3cccc4cc(C(=O)N5CCC(F)(F)CC5)ccc34)cnc2c1=O

Ans.
< 3 nM
< 3 nM
< 3 nM
< 3 nM
< 3 nM

For each of the items listed, what is its IC50?
1. C[C@H]1CCCN(C(=O)c2ccc3c(-c4cc5cc[nH]c(=O)c5cn4)cccc3c2)C1
2. CN(C)C(=O)c1ccc2c(-c3ccn4c(=O)n(C)nc4c3)cccc2c1
3. CN1Cc2cc(-c3cccc4cc(C(=O)N5C[C@H]6CCC[C@H]6C5)ccc34)cnc2C1=O
4. Cn1cnc2cc(-c3cccc4cc(C(=O)N5CCC(F)(F)CC5)cnc34)ccc2c1=O

Ans.
< 3 nM
3 to 10 nM
< 3 nM
< 3 nM

Data credit: patent US12304897B2
